System: OVCAR-8
Experiment: NCI tumour cell line growth inhibition, 48 h
Activity calls are given as the source filed them. Cut-off read from the data, not from the text of the source: active = GI50 up to about 1.1 µM and inactive = higher.
Classes used: 1 = active, -1 = inactive

# COMPOUND, ANSWER_LABEL
data = [
    ("O=C(Nc1ccccc1)n1cc(-c2ccccn2)c(N2CCOCC2)n1", -1),
    ("O=C1C(Br)=CC2(C=C1Br)CCNC1=C2C(=O)c2cccnc2C1=O", -1),
    ("CCOc1ccc(/C(Cl)=C(\\C=O)c2ccc(OC)c(OC)c2)cc1OCC", -1),
    ("COC(c1ccccc1)C(c1ccccc1)N1CCOCC1 (stereo not drawn)", -1),
    ("N#CCC(=O)N/N=C\\C(O)C(O)C(O)C(O)CO (stereo not drawn)", -1),
    ("c1ccc(CSCCC(SCc2ccccc2)SCc2ccccc2)cc1", -1),
    ("COc1ccc2c(c1)OCCc1cn[nH]c1-2", -1),
    ("O=C1C(Cl)C(c2ccccc2O)N1n1cnc2ccccc2c1=O (stereo not drawn)", -1),
    ("Cc1ccc(-c2cc(O)c3cc4c(cc3n2)OCO4)cc1", -1),
    ("COc1ccc(/C(Cl)=C(\\C=O)c2ccc(OC)c(OC)c2)cc1OC", -1),
    ("COC(=O)C(Nc1ccc(OC)cc1)c1ccccc1 (stereo not drawn)", -1),
    ("Cc1ccc(S(=O)(=O)N2CCc3cc(O)c([N+](=O)[O-])cc32)cc1", -1),
    ("O=C1c2ccccc2C(=O)N1Cc1ccccc1-c1c2nc(c(-c3ccccc3CN3C(=O)c4ccccc4C3=O)c3ccc([nH]3)c(-c3ccccc3CN3C(=O)c4ccccc4C3=O)c3nc(c(-c4ccccc4CN4C(=O)c5ccccc5C4=O)c4ccc1[nH]4)C=C3)C=C2", -1),
    ("CN(C)CC(C)(C)CN1c2ccccc2Sc2ccccc21", -1),
    ("N#CC1(C=O)c2ccccc2C=CN1C(=O)c1ccccc1 (stereo not drawn)", -1),
    ("C/C1=C/C(C)CC(C)OC(=O)C(C)NC(=O)C(Cc2ccc(O)c(I)c2)N(C)C(=O)CNC(=O)C(C)C1 (stereo not drawn)", 1),
    ("Nc1ncnc2c1ncn2C1OC(CO)=CC1O (stereo not drawn)", -1),
    ("CCOC(=O)/C(C#N)=C1/C(O)=C(C(=O)OC)C(C(=O)OC)=C1C(=O)OC.c1ccncc1", -1),
    ("Cc1cc(S(=O)(=O)/N=C(\\NN)NCC(=O)NN)c(S)cc1Cl", -1),
    ("O=C(NNC(=O)c1ccccc1O)c1ccccc1O", 1),
    ("O=C(O)/C(O)=C\\C(=O)c1ccc(Br)cc1", -1),
    ("CC(=O)OC1[C@H](n2ccnc2)C[C@H]2[C@@H]3CC=C4CC(N5CCCC5)CC[C@]4(C)[C@H]3CC[C@]12C (stereo partly drawn)", -1),
    ("COc1cccc(CC(=O)N2CCN(CCCc3ccccc3)CC2)c1", -1),
]
